# TESTED_ON: T1, MSLN·His protein (human, UniProt Q13421 296-580, limits assumed)
# T1 construct: Bought protein; also called human MSLN·His antigen; not shown: His tag
# EXPERIMENT_SUMMARY: SPR (Biacore), antibody captured on protein A, MSLN·His as analyte
# Method: (1) Detection of affinity at protein level: the binding kinetics and affinity of heavy chain antibody to human MSLN·His antigen were determined using surface plasmon resonance (SPR). The purified antibody was flowed through the sensor chips pre-immobilized with protein A, and the antibody was captured by protein A. Then five different concentrations of MSLN·His protein were used as the mobile phase, and the binding time and dissociation time were 30 min and 60 min, respectively. […]
koff reference
READOUT: koff (s⁻¹)

M129-IgG4 (antibody, V domains shown, also called M129 heavy chain antibody) VH: QVQLVESGGGSAQAGGSLILSCVASANLFTIDALGWYRQAPGPKRELVAAISSGGNKYYADAVKGRFTISRDTLTKTMWLQMNNLKPEDTAMYYCAAEDYGLGQRSWGMGTQVTVSS	5.37e-05
M2339-IgG4 (antibody, V domains shown, also called M2339 heavy chain antibody) VH: QLQLGASGGGLVQPGGSLRLSCALSGFTLRELDEFAIGWFRQAPGKEREGVSCISGTGGITHYADSVKGRFTISRDIAKTTVYLQMNSLNSEDTAVYYCAADERCTDRLIRPPTYWGQGTQVTVSS	1.82e-05
M119-IgG4 (antibody, V domains shown, also called M119 heavy chain antibody) VH: EVQLVESGGGLVQPGGSLRLSCVASGSDLSFDAMGWYRQFSATVRERQLVVATSRDGRIYYGDSVKGRFTASRDNLKNSVDLEMNNLKPEDTAIYYCAAGDDPKNYDWGPGTQVTVSS	9.58e-05
M344-IgG4 (antibody, V domains shown, also called M344 heavy chain antibody) VH: QVQLVESGGGLVQSGGSLRLSCVASGSAFSFDAMGWYRQFSATRRERQLVVATSRDGRTYYADSVKGRFTATRDNSKNSLYLEMNSLKPEDTAIYYCAAGDDPKNYSWGQGTQVTVSS	2.35e-05
M044-IgG4 (antibody, V domains shown, also called M044 heavy chain antibody) VH: QVQVVESGGGFVQAGGSLRLSCAASTPIISIAYMGWYRQISEKERQLVATINSGGKTYYADSVKGRFTISRDNAKNTLYLQMNMLKPEDTGMYYCAASNKDYNDYDPDWGQGTQVTVSS	7.5e-05
M003-IgG4 (antibody, V domains shown, also called M003 heavy chain antibody) VH: QVQLVESGGGLVQAGGSLRLSCTASGNIFSINAMGWYRQPPGKEWERELVATISSTNSDNTYYKESVKGRFTISTNTAKNTWYLQMNSLKPEDTAMYYCAAENFDRKDRYWAQGTQVTVSS	0.000429
M156-IgG4 (antibody, V domains shown, also called M156 heavy chain antibody) VH: QVQLVESGGGLVQAGGSLRLSCAVSGISFEYYAIGWFRQAPGKEREAVSCTTSGTTSGGGVTDYADSLKGRFTISRDVAKNTVYLQMNNLTPEDTAVYYCAADIHCRGYVLFVPSDFGNWGQGTQVTVSS	5.4e-05
